All values here come from paper PMC3218832.

Reported binding signal values are given for each entry in this list.
# ASSAYED_TARGET: RELB subunit;p50 subunit (Homo sapiens;Homo sapiens, UniProt Q01201;P19838 120-401;7-356)
# Sequence (Q01201 120-401, chain 1 of 2): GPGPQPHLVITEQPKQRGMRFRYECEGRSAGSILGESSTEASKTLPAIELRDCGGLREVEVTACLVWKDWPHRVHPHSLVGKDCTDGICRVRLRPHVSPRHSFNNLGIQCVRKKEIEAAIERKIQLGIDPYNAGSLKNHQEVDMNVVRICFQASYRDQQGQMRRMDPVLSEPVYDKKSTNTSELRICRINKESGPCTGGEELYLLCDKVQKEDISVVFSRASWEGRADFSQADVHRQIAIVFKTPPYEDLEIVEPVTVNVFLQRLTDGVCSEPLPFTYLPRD
# Sequence (P19838 7-356, chain 2 of 2): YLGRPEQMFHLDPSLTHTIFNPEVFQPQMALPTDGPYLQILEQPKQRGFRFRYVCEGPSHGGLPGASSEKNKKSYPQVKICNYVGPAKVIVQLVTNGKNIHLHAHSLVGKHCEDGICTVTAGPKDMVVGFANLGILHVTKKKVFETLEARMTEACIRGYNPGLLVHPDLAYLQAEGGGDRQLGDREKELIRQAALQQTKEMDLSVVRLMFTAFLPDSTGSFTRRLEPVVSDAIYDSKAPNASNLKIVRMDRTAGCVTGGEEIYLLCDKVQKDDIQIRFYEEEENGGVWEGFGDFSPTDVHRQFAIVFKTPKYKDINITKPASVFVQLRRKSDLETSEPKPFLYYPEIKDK
# PROTOCOL_DESCRIPTION: protein binding microarray; high values mean tight binding
# EXPERIMENTAL_CONDITIONS: dsDNA, one strand shown
Enter your answer as a number in z-score; do not include the unit.

Examples from the recorded data:
| QUERY_SEQUENCE | binding signal [z-score] |
| --- | --- |
| AGGTAATTCCT | 0.351 |
| AGGAAGCCCCC | 1.03 |
| AGGTACGCCCC | 0.233 |
| GGGTGGCCCCC | 0.399 |
| AGAAACTTCCC | 0.409 |
| GAGGTGGTCCT | -0.46 |
| AGGAATATCCC | 0.0984 |
| AAGATTTCCCC | 2.3 |
| AGATGCGCCCT | -1.01 |
| AGGTTTATCCT | -0.943 |

input: Name the recorded binding signal of the sequence listed here: "CAATGAATCCC"
output: -0.22

input: Give the measured binding signal for "GAAAAATTCCT"
output: -0.659

input: Given the sequence "GGAATGGTCCT" , write its reported binding signal.
output: -0.903

input: Complete the entry with binding signal for "GGAGGATCCCC"
output: 1.27
